Target chain: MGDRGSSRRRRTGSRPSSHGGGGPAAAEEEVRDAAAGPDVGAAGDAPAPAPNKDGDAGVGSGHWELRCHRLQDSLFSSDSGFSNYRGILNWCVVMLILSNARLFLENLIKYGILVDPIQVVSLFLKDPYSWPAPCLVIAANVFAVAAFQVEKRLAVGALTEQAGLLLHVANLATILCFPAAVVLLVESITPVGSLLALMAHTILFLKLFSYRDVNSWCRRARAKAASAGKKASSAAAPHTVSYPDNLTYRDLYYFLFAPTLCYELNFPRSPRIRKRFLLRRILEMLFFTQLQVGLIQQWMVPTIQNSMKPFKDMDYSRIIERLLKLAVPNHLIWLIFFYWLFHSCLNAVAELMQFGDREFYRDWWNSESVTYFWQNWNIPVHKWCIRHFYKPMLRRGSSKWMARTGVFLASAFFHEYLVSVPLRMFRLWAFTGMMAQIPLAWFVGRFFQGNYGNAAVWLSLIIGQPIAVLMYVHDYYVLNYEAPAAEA
pIC50: −log10 of the molar value.
recorded.metric: pIC50

Below, 4 compounds whose answers are already recorded.
# structure, pIC50
rows = [
    ("O=C(Nc1ccc(N2CCN(C(=O)Oc3c(Cl)cccc3Cl)CC2)cc1)c1cccc(N2CCCC2)c1", 8.19),
    ("Cc1cc(C)n(-c2cccc(C(=O)Nc3ccc(N4CCN(C(=O)Nc5c(Cl)cccc5Cl)CC4)cc3)c2)n1", 8.30),
    ("Cc1cc(C)c(NC(=O)N2CCN(c3ccc(NC(=O)c4ccccc4-c4ccc(C(F)(F)F)cc4)cc3)CC2)c(C)c1", 6.75),
    ("O=C(Nc1ccc(N2CCN(C(=O)Nc3c(Cl)cccc3Cl)CC2)cc1)c1ccc(N2CCOCC2)cc1", 7.96),
]

I = COc1cccc(OC)c1NC(=O)N1CCN(c2ccc(NC(=O)c3ccccc3-c3ccc(C(F)(F)F)cc3)cc2)CC1
II = CCc1nc(C)c(-c2ccccc2C(=O)Nc2ccc(N3CCN(C(=O)Nc4c(Cl)cccc4Cl)CC3)cc2)s1
In terms of reported pIC50, does I or II have the smaller number? Write the label of whichever entry you select. I
(I: 5.28, II: 7.39)

A = CCCc1ccccc1NC(=O)N1CCN(c2ccc(NC(=O)c3ccccc3-c3ccc(C(F)(F)F)cc3)cc2)CC1
B = Nc1ccccc1C(=O)Nc1ccc(C2CCN(C(=O)Nc3c(Cl)cccc3Cl)CC2)cc1
Which one would you say has the larger pIC50 value: A , or B ? Write the label of whichever entry you select. B
(B: 6.49, A: 5.12)

1 = O=C(Nc1ccc(N2CCN(C(=O)Nc3c(Cl)cccc3Cl)CC2)cc1)c1ccc(-c2ccccn2)cc1
2 = O=C(Nc1ccc(N2CCN(C(=O)Nc3c(Cl)cccc3Cl)CC2)cc1)c1ccc(-n2cnnc2)cc1
3 = Cc1cccc([N+](=O)[O-])c1NC(=O)N1CCN(c2ccc(NC(=O)c3ccccc3-c3ccc(C(F)(F)F)cc3)cc2)CC1
4 = CN1CCN(C(=O)Cc2cc(Cl)c(NC(=O)N3CCN(c4ccc(NC(=O)c5cccc(N6CCCC6)c5)cc4)CC3)c(Cl)c2)CC1
Sequence the entries by pIC50, beginning with the highest number. Returns: the labels listed in the requested order. 4, 1, 3, 2

I = Cc1cccc(C)c1NC(=O)N1CCC(c2ccc(NC(=O)c3ccccc3-c3ccc(C(F)(F)F)cc3)cc2)CC1
II = Cc1ccccc1-c1cccc(C(=O)Nc2ccc(N3CCN(C(=O)Nc4c(Cl)cccc4Cl)CC3)cc2)c1
Which one would you say has the larger pIC50 value: I , or II ? Write the label of whichever entry you select. II
(II: 8.76, I: 6.18)
